Values compiled from the RNAGym collection of RNA variant scans (doi:10.7554/elife.80360).

B1: Twister Ribozyme (parent)
chain: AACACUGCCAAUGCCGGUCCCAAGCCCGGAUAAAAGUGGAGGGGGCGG

# Variants of: B1
# Test Method Notes: self-cleavage, relative activity (ratio to wild type); higher = more cleavage; co-transcriptional
Definition: the class of an entry is the range in class A: < 0.1; class B: ≥ 0.1 and < 0.3; class C: ≥ 0.3 that contains its self-cleavage.

{"Mutation Notation": "G38C G43U", "Answer Label": "class B"}
{"Mutation Notation": "C21G G42U", "Answer Label": "class B"}
{"Mutation Notation": "A1G C27U", "Answer Label": "class C"}
{"Mutation Notation": "C21G G28A", "Answer Label": "class B"}
{"Mutation Notation": "G13A G42C", "Answer Label": "class C"}
{"Mutation Notation": "G36U G44C", "Answer Label": "class C"}
{"Mutation Notation": "G13U G29C", "Answer Label": "class C"}
{"Mutation Notation": "U37C G45C", "Answer Label": "class B"}
{"Mutation Notation": "C9U A40U", "Answer Label": "class B"}
{"Mutation Notation": "U18A C21A", "Answer Label": "class A"}
{"Mutation Notation": "A1C U18C", "Answer Label": "class B"}
{"Mutation Notation": "C21U A32C", "Answer Label": "class B"}
{"Mutation Notation": "U12C U31G", "Answer Label": "class C"}
{"Mutation Notation": "G16A C26U", "Answer Label": "class B"}
{"Mutation Notation": "G24C A32C", "Answer Label": "class B"}
{"Mutation Notation": "A40U G47C", "Answer Label": "class B"}
{"Mutation Notation": "U12C C46G", "Answer Label": "class C"}
{"Mutation Notation": "G13C A33G", "Answer Label": "class C"}
{"Mutation Notation": "G16C C25G", "Answer Label": "class A"}
{"Mutation Notation": "C20G G42U", "Answer Label": "class C"}
{"Mutation Notation": "A4G G47A", "Answer Label": "class C"}
{"Mutation Notation": "C20U C27U", "Answer Label": "class C"}
{"Mutation Notation": "A10G U31C", "Answer Label": "class C"}
{"Mutation Notation": "G7C G48U", "Answer Label": "class A"}
{"Mutation Notation": "C8A G17C", "Answer Label": "class A"}
{"Mutation Notation": "C14A A30C", "Answer Label": "class C"}
{"Mutation Notation": "C21A G28U", "Answer Label": "class B"}
{"Mutation Notation": "C21U A30C", "Answer Label": "class A"}
{"Mutation Notation": "C20A C27G", "Answer Label": "class A"}
{"Mutation Notation": "A33U G38A", "Answer Label": "class C"}
{"Mutation Notation": "A35C G39U", "Answer Label": "class B"}
{"Mutation Notation": "A33G G41C", "Answer Label": "class B"}
{"Mutation Notation": "G24A C46U", "Answer Label": "class B"}
{"Mutation Notation": "U31G A40U", "Answer Label": "class B"}
{"Mutation Notation": "C8G G48A", "Answer Label": "class B"}
{"Mutation Notation": "G7A G16C", "Answer Label": "class A"}
{"Mutation Notation": "C3U G44C", "Answer Label": "class C"}
{"Mutation Notation": "C3U G28C", "Answer Label": "class B"}
{"Mutation Notation": "G38U G43U", "Answer Label": "class B"}
{"Mutation Notation": "C26A G45U", "Answer Label": "class B"}
{"Mutation Notation": "A2G C15A", "Answer Label": "class B"}
